Test system: 786-0
Assay: NCI tumour cell line growth inhibition, 48 h
The source made the active and inactive calls. Cut-off read from the data, not from the text of the source: active = GI50 up to about 1.1 µM and inactive = higher.
Measured metric: GI50

Consider the following illustrative entries.
1. CC(C)(C)c1cc(/C=C/C(=O)CC(=O)/C=C/c2cc(C(C)(C)C)c(O)c(C(C)(C)C)c2)cc(C(C)(C)C)c1O; > 50 µM (inactive)
2. COC(=O)C1=C(O)c2ccc(Cl)cc2S(=O)(=O)N1C; > 100 µM (inactive)
3. COC(=O)c1sc(=S)sc1SCc1ccccc1CSc1sc(=S)sc1C(=O)OC; 46.1 µM (inactive)
4. CN(C)CC1CCC/C(=C\c2ccc(Cl)c(Cl)c2)C1=O (stereo not drawn); 1.75 µM (inactive)
5. Cc1cc2c(cc1C)[n+]([O-])c(C(=O)/C=C/c1ccccc1[N+](=O)[O-])c(C)[n+]2[O-]; 33 µM (inactive)
6. CC(CNCCCNCCNCCCNCO)[N+](=O)[O-] (stereo not drawn); 15.7 µM (inactive)
7. COCCOCOc1ccc(OCOCCOC)c2c1C(=O)c1ccccc1C2=O; 92.9 µM (inactive)
8. Nc1ccc(N(S(=O)(=O)c2ccccc2)S(=O)(=O)c2ccccc2)c(Cl)c1; 81.1 µM (inactive)

Hi, could you look up GI50 for each item in my list?
1. Cc1ccc(C(=O)Nc2ccc(CP(=O)(O)O)cc2CP(=O)(O)O)cc1NC(=O)c1cccc(N)c1
2. CCOP(=O)(CCCC(O)CNc1cc(Cl)nc(N)n1)OCC (stereo not drawn)
3. COc1c(-c2nc3ccc(N4CCN(C)CC4)nc3[nH]2)cc(OC)c2[nH]c(COC(C)=O)nc12
4. Cc1ccc(S(=O)(=O)n2c3c(c4ccccc42)CCN2C[C@H]([C@H](C)Br)CC[C@@H]32)cc1
5. Cc1cc2oc(C)c(S(=O)(=O)NC(=O)Nc3ccc(Cl)cc3)c(=O)c2c(=O)o1

1. > 100 µM (inactive)
2. > 100 µM (inactive)
3. 22.8 µM (inactive)
4. > 100 µM (inactive)
5. > 100 µM (inactive)

----------
Tested on: UACC-62
Assay: NCI tumour cell line growth inhibition, 48 h
Calls of active or inactive are those of the source. No stated cut-off is given here; in the data, active = GI50 up to about 1.1 µM and inactive = higher.
API: response.call in active, inactive

How did this test come out for CCCCCCCCCCCCCCC1OC(=O)c2ccccc21 (configuration not stated) ?
inactive

How did this test come out for Cn1c(COC(=O)NC2CCCCC2)c(COC(=O)NC2CCCCC2)c2ccc3ccccc3c21 ?
inactive

How did this test come out for CN(C)CCCOc1nc2c(c(=O)n(C)c(=O)n2C)n1C.SC1=NC=NC2=NC=NC12 ?
inactive

----------
Tested on: COLO 205
Assay: NCI tumour cell line growth inhibition, 48 h
Active and inactive are the calls of the source. No stated cut-off is given here; in the data, active = GI50 up to about 1.1 µM and inactive = higher. Non-standard residues stand in square brackets, D forms with d. Residues, ends and D or L forms follow the SMILES beside them. ξ: configuration not given here. Pentanoyl(2-O,4-OH,5-Cl) = O=C(O)C(O)CC(O)CCl; Ile(3ξ) = CCC(C)[C@H](N)C(=O)O; NMeV = CN[C@H](C(=O)O)C(C)C; NMeA = CN[C@@H](C)C(=O)O; βAla = NCCC(=O)O
API: response.call in 1 = active, 0 = inactive

Worked set:
1) CCOC(=O)/C(=C\NC(C)(C)C)c1nc2ccccc2o1; 0
2) O=[N+]([O-])c1ccc(-c2cnc3ccccn23)cc1; 0
3) C/C(=N\NC(=O)CC(=O)N(C(=O)c1ccc(Cl)cc1)c1ccc(C)cc1)c1ccccc1O; 0
4) Nc1ncnc2nc(N3CCN(CCO)CC3)[nH]c12; 0

How did this test come out for OC(O)(C(F)(F)F)C(F)(F)F ?
0

How did this test come out for Cc1cnccc1/N=N/c1ccc(N(C)C)cc1 ?
0

How did this test come out for CCC(C)[C@@H]1NC(=O)[C@@H]2CCCN2C(=O)C(CC(O)CCl)OC(=O)CCNC(=O)[C@H](C)N(C)C(=O)[C@H](C(C)C)N(C)C1=O (some centres not stated) (cyclo([Ile(3ξ)][NMeV][NMeA][βAla][Pentanoyl(2-O,4-OH,5-Cl)]P)) ?
0

How did this test come out for CCOC(=O)C1Cc2c(ccc(OC)c2OC)C(=O)C1N (configuration not stated) ?
0

How did this test come out for CCn1c(SCC(=O)NNC(=S)Nc2ccc(F)cc2)nc2ccccc2c1=O ?
0

How did this test come out for Cn1nc(-c2ccccc2NC(=O)C(F)(F)F)c(=O)n(C)c1=S ?
0

How did this test come out for CCOc1cc(-c2nc3ccccn3c2/N=C/c2cc([N+](=O)[O-])cc([N+](=O)[O-])c2O)ccc1O ?
0

How did this test come out for O=C(c1cc(Br)ccc1O)c1cc(Br)ccc1O ?
0

How did this test come out for C=C1C(=O)C23[C@H](O)C1CC[C@H]2[C@]12COC3(O)[C@@H](O)[C@@H]1C(C)(C)CC[C@@H]2O ?
1

How did this test come out for O=C1CC2(CCCc3sccc32)C(=O)N1 (configuration not stated) ?
0

How did this test come out for N=C(N)c1ccc(/N=N\c2c(O)ccc3cc4c(/N=N\c5ccc(C(=N)N)cc5)c(O)ccc4cc23)cc1 ?
0

How did this test come out for COC(=O)CCC(=O)N1C/C(=C\c2ccccc2)C(=O)/C(=C/c2ccccc2)C1 ?
0

How did this test come out for Cc1ccc(-n2c(C)nc3c2C(=O)c2ccccc2C3=O)cc1 ?
0
